Species on record: Rattus norvegicus
protocolDescription: DrugMatrix - Regimen: Daily Repeat
Assay type: toxicity, organism-based, Sprague-Dawley
Set-up: regimen Daily Repeat, gender Male, age 6-8 weeks
conditionParameters: in vivo, po, 1500 mg/kg, 72 h, tissue Blood, route oral GAVAGE, dose level High, time 3 day, vehicle .5 % CMC
As shown below, each of these compounds has a reported EOSINOPHIL value.
Report only the number, with the unit % understood.

O=C1CCc2cc(OCCCCc3nnnn3C3CCCCC3)ccc2N1 ... 0.27
CCOC(=O)[C@H](CCc1ccccc1)N[C@@H](C)C(=O)N1[C@H](C(=O)O)C[C@@H]2CCC[C@@H]21 ... 0.67
NS(=O)(=O)c1cc2c(cc1Cl)NCNS2(=O)=O [HYDROCHLOROTHIAZIDE] ... 0

QUERY: Record request: EOSINOPHIL value, item COC(=O)c1ccc(O)cc1
RESULT: 0

* * *

Species on record: Rattus norvegicus
protocolDescription: DrugMatrix - Regimen: Daily Repeat
Format: toxicity, organism-based, Sprague-Dawley
Design: regimen Daily Repeat, gender Male, age 6-8 weeks
conditionParameters: in vivo, po, 0 mg/kg, 120 h, tissue Blood, route oral GAVAGE, dose level Control, time 5 day, vehicle .5 % CMC
Classification field: enter 1 for EOSINOPHIL values not below 0.4%, -1 for values below it.

The examples below pair each entry with its known result.
CC(C)[C@H](N)C(=O)OCCOCn1cnc2c(=O)[nH]c(N)nc21 ... -1
CCc1ccc(C(=O)C(C)CN2CCCCC2)cc1 (centres undefined) ... 1
O=c1cc(-c2ccccc2)oc2c1ccc1ccccc12 ... 1
O=C1CCc2cc(OCCCCc3nnnn3C3CCCCC3)ccc2N1 ... 1
CCC[C@@H]1C[C@@H](C(=O)N[C@@H]([C@H]2O[C@H](SC)[C@H](O)[C@@H](O)[C@H]2O)[C@@H](C)O)N(C)C1 ... -1

QUERY: Please tell me: is the compound CN1C(C(=O)Nc2ccccn2)=C(O)c2ccccc2S1(=O)=O at or over 0.4% in terms of EOSINOPHIL?
RESULT: -1

QUERY: Quick check, EOSINOPHIL >= 0.4%? CC(/C=C1\SC(=S)N(CC(=O)O)C1=O)=C\c1ccccc1
RESULT: 1

QUERY: Item CCc1cccc2c3c([nH]c12)C(CC)(CC(=O)O)OCC3 (centres undefined) with EOSINOPHIL of 0.4% or above?
RESULT: 1

QUERY: Does the reported EOSINOPHIL for O=c1[nH]cc(F)c(=O)[nH]1 fall at or above the 0.4% mark?
RESULT: -1

QUERY: Is reported EOSINOPHIL greater than or equal to 0.4% here: CCOC(=O)OC(C)OC1=C(C(=O)Nc2ccccn2)N(C)S(=O)(=O)c2ccccc21 (centres undefined)
RESULT: -1

QUERY: Please tell me: is the compound COc1c(C)c2c(c(O)c1C/C=C(\C)CCC(=O)OCCN1CCOCC1)C(=O)OC2 [MYCOPHENOLATE MOFETIL] at or over 0.4% in terms of EOSINOPHIL?
RESULT: 1

QUERY: # bool: EOSINOPHIL of Cc1c(-c2ccccc2)oc2c(C(=O)OCCN3CCCCC3)cccc2c1=O [FLAVOXATE] >= 0.4%
RESULT: 1

The reported measurements were obtained from ChEMBL document CHEMBL3885881.
